- TARGET: SARS-CoV-2 spike protein receptor binding domain (RBD2) (SARS-CoV-2, UniProt P0DTC2 319-537)
- ASSAY_OVERVIEW: flow cytometry, yeast-displayed scFv
Entries and their Kd
Entry rule: numbers only, all in nM.

BINDER	TEST_RESULT
E08 scFv (scFv) scFv: SYVLTQPPSVSVAPGKTARITCGGNNIGWKSVHWYQQKPGQAPVLVVYDDSDRPSGIPERFSGSNSGNTATLTISRVEAGDEADYYCQVWDSSSDLVVFGGGTKLTVLSGGSTITSYNVYYTKLSSSGTQVQLVQSGAEVKKPGSSVKVSCKASGGTFSSYAISWVRQAPGQGLEWMGGIIPIFGTANYAQKFQGRVTITADESTSTAYMELSSLRSEDTAVYYCARASGRWLQFWHYYGMDVWGQGTTVTVSS	13.9

Now examine the next entry.
Identify measured Kd corresponding to H05 scFv (scFv, also called H5) scFv: SYVLTQPPSVSVAPGQTARITCGANNIGRISVHWYQQKPGQAPVLVVYDDSDRPSGIPERFSGSNFGNTATLTISRVEAGDEADYYCQVWDSYSDHVIFGGGTKLTVLSGGSTITSYNVYYTKLSSSGTQVQLVQSGAEVKKPGSSVKVSCKASGGTFSSYAISWVRQAPGQGLEWMGGIIPIFGTANYAQKFQGRVTITADESTSTAYMELSSLRSEDTAVYYCARSIFGVVIISHADGYYYGMDVWGQGTTVTVSS
16.7
